Target: T1, ALK-ECD-myc/his tag protein (human, UniProt Q9UM73 19-1038)
T1 construct: Expressed in 293/293F cells and purified from conditioned medium; biotin labelled for the soluble panning; also called recombinant ALK-ECD-myc/his tag; ALK-ECD protein; not shown: Myc/His tag
T1 sequence (Q9UM73 other isoform, or with tags, fused parts or gaps): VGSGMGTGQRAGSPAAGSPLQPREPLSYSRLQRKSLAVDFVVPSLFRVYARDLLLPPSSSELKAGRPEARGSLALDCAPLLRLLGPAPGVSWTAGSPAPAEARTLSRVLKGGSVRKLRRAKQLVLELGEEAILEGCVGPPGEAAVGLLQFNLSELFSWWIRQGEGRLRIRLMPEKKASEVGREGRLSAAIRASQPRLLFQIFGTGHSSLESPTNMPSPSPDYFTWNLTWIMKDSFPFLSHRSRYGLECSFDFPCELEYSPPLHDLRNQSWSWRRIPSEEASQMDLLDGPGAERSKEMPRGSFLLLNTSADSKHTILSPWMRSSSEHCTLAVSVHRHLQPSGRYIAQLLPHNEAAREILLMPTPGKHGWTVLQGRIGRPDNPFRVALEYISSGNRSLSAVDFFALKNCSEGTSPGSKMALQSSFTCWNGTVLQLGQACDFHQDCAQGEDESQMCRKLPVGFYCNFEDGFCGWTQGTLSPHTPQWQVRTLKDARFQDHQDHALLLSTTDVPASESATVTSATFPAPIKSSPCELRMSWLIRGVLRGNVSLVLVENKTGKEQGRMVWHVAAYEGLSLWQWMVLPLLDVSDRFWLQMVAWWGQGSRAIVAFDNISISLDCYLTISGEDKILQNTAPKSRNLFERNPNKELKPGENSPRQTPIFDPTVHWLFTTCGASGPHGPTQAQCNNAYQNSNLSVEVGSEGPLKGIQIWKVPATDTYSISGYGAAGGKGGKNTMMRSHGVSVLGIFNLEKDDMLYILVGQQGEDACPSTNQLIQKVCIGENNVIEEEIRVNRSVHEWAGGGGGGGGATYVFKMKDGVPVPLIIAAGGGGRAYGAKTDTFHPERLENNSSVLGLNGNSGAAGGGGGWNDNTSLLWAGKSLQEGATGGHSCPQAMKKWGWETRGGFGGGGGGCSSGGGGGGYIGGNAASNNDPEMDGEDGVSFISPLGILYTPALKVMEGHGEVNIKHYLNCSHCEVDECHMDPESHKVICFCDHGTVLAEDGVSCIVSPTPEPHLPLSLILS
Assay: ELISA, ALK-ECD-myc/his coated at 10 μg/mL, anti-human IgG-HRP
Observation type: binding result

fully human anti-ALK IgG A2 (antibody, V domains shown, Full length fully human IgG) VH: EVQLLESGGGLVQPGGSLRLSCAASGFTFSGYTMYWVRQAPGKGLEWVSSISPSGGITFYADSVKGRFTISRDNSKNTLYLQMNSLRAEDTAVYYCARGRLFWSGYYTNRLGYAFDIWGQGTMVTVSS VL: DIQMTQSPSSLSASVGDRVTITCRASQSIRSYLNWYQQKPGKAPKLLIYAASNLQSGVPSRFSGSGSGTDFTLSISSLQPEDFATYYCQQSYSTLWTFGQGTKVEIK : binds
